- assay_system: human S1P2 receptor (Homo sapiens, UniProt O95136)
- Construct: expressed in transfected cells; host or cells: CHO cells (membrane preparation)
- Sequence (O95136 whole entry): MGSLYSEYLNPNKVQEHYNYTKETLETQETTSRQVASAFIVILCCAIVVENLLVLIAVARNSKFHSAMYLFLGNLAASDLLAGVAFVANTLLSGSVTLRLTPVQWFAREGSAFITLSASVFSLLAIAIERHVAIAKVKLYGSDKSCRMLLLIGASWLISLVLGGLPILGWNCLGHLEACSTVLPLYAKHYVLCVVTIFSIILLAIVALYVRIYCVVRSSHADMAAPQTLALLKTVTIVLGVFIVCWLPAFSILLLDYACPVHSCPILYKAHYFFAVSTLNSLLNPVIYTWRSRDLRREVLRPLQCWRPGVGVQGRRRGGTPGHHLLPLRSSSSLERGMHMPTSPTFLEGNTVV
- test_method_notes: GTPγS binding assay (SPA), antagonism of S1P at S1P2
- Format: biochemical
- stated_conditions: GTP-γ-S binding assay, membranes of CHO cells expressing human S1P2, 5 nM S1P
This listing pairs compounds with measured Kb.
attribute_measured: Kb (nM)

{"compound": "CCOc1ccc(C(=O)Cn2c(=O)n(CCCC(=O)NC3CCCC3)c(=O)c3cc(Cl)ccc32)cc1Cl [Compound 3-4]", "attribute_measured": "Kb", "endpoint_value": 4.8}
{"compound": "COc1cc(OC)c(NC(=O)Cn2c(=O)n(CC(=O)O)c(=O)c3ccccc32)cc1Cl [Example 1-1]", "attribute_measured": "Kb", "endpoint_value": 0.8}
{"compound": "COc1cc(OC)c(NC(=O)Cn2c(=O)n(CC(=O)NCCc3cccnc3)c(=O)c3ccccc32)cc1Cl [Example 1-13]", "attribute_measured": "Kb", "endpoint_value": 1.9}
{"compound": "COc1cc(OC)c(NC(=O)Cn2c(=O)n(-c3ccc(CC(=O)NCCc4ccccc4)cc3)c(=O)c3ccccc32)cc1Cl [Example 2-1]", "attribute_measured": "Kb", "endpoint_value": 3.6}

// data source = patent US8633211B2
